# Tested on: Enterovirus EV71
# TEST: Impact of the drug on virus-induced cytopathy (CPE, MTT), EV71
# Type: cell-based
# RUN CONDITIONS: Vero cells, 100TCID50, drug at about the maximum non-toxic concentration, 72 h
Where a name gives a salt, the structure may show the parent alone.
Below, each entry is listed with its recorded antiviral effective rate (ER %), EV71.
Give your result in % as a bare value.

// below: answered compounds
COMPOUND	antiviral effective rate (ER %), EV71
COc1ccc([C@H]2OCC3C2CO[C@H]3c2ccc(OC)c(OS(=O)(=O)O)c2)cc1OC.N (stereo partly shown)	35.12
CCOC(=O)C1=C[C@@H](OC(CC)CC)[C@H](NC(C)=O)[C@@H](N)C1 [oseltamivir phosphate, Oseltamivir phosphate, reference compound]	51.86

From here, focus on the item given below.
Under Enterovirus EV71: antiviral effective rate (ER %), EV71 value of COc1ccc([C@H]2OCC3C2CO[C@H]3c2ccc(OC)c(OS(=O)(=O)O)c2)cc1OC (stereo partly shown) [forsythiaside sodium sulfate] ?
50.21
